Listed here are molecules together with their documented Cas9 with SSAP activity (normalized).
- Tested on: gene editing with Cas9
- assayMethodText: Screen of 322 new SSAP proteins, gene editing activity with Cas9 (Table 5)
- Type: cell-based
- testParameters: normalized
endpoint: Cas9 with SSAP activity (normalized)

# molecule, endpoint, readoutValue
measured = [
    ("SSAP_75: SEQ ID NO: 244 (protein) ANELGIFSVDNLNMTTIKQYLDGGGKASDAELVLLINLCKQNNMNPFMKEVYFIKYGNQPAQIVVSRDFYRKRAFQNPNFAGIEVGVIVLNKDGVLEHNEGTFKTHEQELVGAWARVHLKNTEIPVYVAVSYDEYVQMKDGHPNKMWTNKPCTMLGKVAESQALRMAFPAEFSGTYGEEELPEPEKEPREVNGVKEPDRAQIESFDKEDYAAKKIEELKEKAQPQKEVVKETGEVIDKITAEDF", "Cas9 with SSAP activity (normalized)", 0.225),
    ("SSAP_64: SEQ ID NO: 233 (protein) SELQQAAQGQQSNNPVSFIYSHAKDIQNVLTKGTDMDRWLQMARLAVMRDQNLVASAKRDPGSLMQALLDCAEKGHVPGTEDYYLVPRKGGIQGMESWKGIAKRIMRSGRYQSIVNEVVYEGETFEFNPNTMDRPVHNINYMTRTSGKPVMSYAYALDHDGKPSSVAIADPRYIAKVKKNSRGSVWEDWDEQMYRKTAVKMLQDYVDTSSVDRRDVSTVQVDDANVIDVDDTFTAREAGE", "Cas9 with SSAP activity (normalized)", 1.090),
]
